test: recombinant barcode read abundance after kanamycin selection (control-corrected) (log10(CPM+1)); higher = more efficient recombination; sequences stand for … in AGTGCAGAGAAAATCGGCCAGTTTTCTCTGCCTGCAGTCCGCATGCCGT…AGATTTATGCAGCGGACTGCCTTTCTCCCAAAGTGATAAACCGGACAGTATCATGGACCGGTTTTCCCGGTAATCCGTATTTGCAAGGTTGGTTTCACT; site = the 11-nt target
Recorded endpoint: recombinant barcode read abundance (log10)
Output: the number by itself.

Some solved entries appear below for comparison.
CTGGAGTCTTGGGTTCTAACCTGTTGCCT (site CTGGGGTCTAG)
0.412
ACGCCTCCTTGGGTTCTAACCTGTTGCTG (site ACGGCTCCTCA)
0.269
CCTAGAACTTGGGTTCTAACCTGTTGCCT (site CCTAGAGCTAG)
0.126
TCTCGGACTTGGGTTCTAACCTGTTGCCT (site TCGCGGACTAG)
0.0137
ATTCGGGCTTGGGTTCTAACCTGTTGCGT (site ATTCGGGCTAC)
2.07

We next turn to a different sequence, shown below.
In: Which recombinant barcode read abundance (log10) reading was recorded for the sequence GACACTTCTTGGGTTCTAACCTGTTGCCT (site GACACTTCTAG) ?
Out: 0.133

###

assay: recombinant UMI read abundance after kanamycin selection (control-corrected) (log10(CPM+1)); higher = more efficient recombination; extreme values may be limits of the assay; sequences stand for … in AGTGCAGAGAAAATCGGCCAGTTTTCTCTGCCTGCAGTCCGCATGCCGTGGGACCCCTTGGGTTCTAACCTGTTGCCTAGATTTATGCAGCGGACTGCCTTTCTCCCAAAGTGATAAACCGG…AGGTTGGTTTCACT; site = the 11-nt donor
Recorded endpoint: recombinant UMI read abundance (log10)
Please reply with the number alone, leaving off any unit.

The examples below pair each entry with its known result.
TCATTCTCATGGACCGGTTTTCCCGGTAATCCGTATTTGCA (site TCATGCTCTTG)
0.00845
CGATATGCATGGACCGGTTTTCCCGGTAATCCGTATTTGGG (site CGATATGCTCC)
0.685
ACATGAACATGGACCGGTTTTCCCGGTAATCCGTATTTGTC (site ACATGAACTGA)
1.57
CGCCTTTCATGGACCGGTTTTCCCGGTAATCCGTATTTGAC (site CGCCTTTCTGT)
0
ATTGCGGCATGGACCGGTTTTCCCGGTAATCCGTATTTGCT (site GTTGCGGCTAG)
0.0081
TCAGAGGCATGGACCGGTTTTCCCGGTAATCCGTATTTGCG (site TCAGAGGCTCG)
1.26

In: # recombinant UMI read abundance (log10) lookup, item CCGTTTTCATGGACCGGTTTTCCCGGTAATCCGTATTTGCT (site CCGTTTCCTAG)
Out: 0.00608

In: Param item = TAGGTTTCATGGACCGGTTTTCCCGGTAATCCGTATTTGCG (site TAGGTTTCTCG) ; retrieve measured recombinant UMI read abundance (log10).
Out: 1.99

In: Need recombinant UMI read abundance (log10), item CGGCGCCCATGGACCGGTTTTCCCGGTAATCCGTATTTGTC (site CGGCGCCCTGA)
Out: 1.85

In: Given TGTTCGCCATGGACCGGTTTTCCCGGTAATCCGTATTTGTA (site TGTTCACCTTA) , state its recorded recombinant UMI read abundance (log10).
Out: 0

In: Please give the measured recombinant UMI read abundance (log10) for this sequence: GCGAAGCCATGGACCGGTTTTCCCGGTAATCCGTATTTGGG (site GCGAATCCTCC)
Out: 0.0162

In: # recombinant UMI read abundance (log10) lookup, item CAGCCTTCATGGACCGGTTTTCCCGGTAATCCGTATTTGGT (site TAGCCTTCTAC)
Out: 0.0206

In: Give its recombinant UMI read abundance (log10) value. Item: GTACTATCATGGACCGGTTTTCCCGGTAATCCGTATTTGGC (site GTACTATCTGC)
Out: 3.19

In: Which recombinant UMI read abundance (log10) reading was recorded for the sequence CATGGCCCATGGACCGGTTTTCCCGGTAATCCGTATTTGTT (site CAGGGCCCTAA) ?
Out: 0.0418

In: Given the entry GGTCCAACATGGACCGGTTTTCCCGGTAATCCGTATTTGAA (site GGTCCAACTTG) , report its measured recombinant UMI read abundance (log10).
Out: 0

In: Sample CTAGCATCATGGACCGGTTTTCCCGGTAATCCGTATTTGAC (site CTAGAATCTGT) — what was its recombinant UMI read abundance (log10)?
Out: 0.337

In: Need recombinant UMI read abundance (log10) of GGATCGACATGGACCGGTTTTCCCGGTAATCCGTATTTGTT (site GGATCGACTAA) , thanks.
Out: 0.7

In: Item under review: AGGAGGACATGGACCGGTTTTCCCGGTAATCCGTATTTGCC (site AGGAAGACTTG) . Reported recombinant UMI read abundance (log10)?
Out: 0

###

test: recombinant UMI read abundance after kanamycin selection (control-corrected) (log10(CPM+1)); higher = more efficient recombination; extreme values may be limits of the assay; sequences stand for … in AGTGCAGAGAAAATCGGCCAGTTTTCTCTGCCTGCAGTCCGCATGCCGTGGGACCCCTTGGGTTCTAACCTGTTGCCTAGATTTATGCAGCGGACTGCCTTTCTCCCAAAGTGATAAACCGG…AGGTTGGTTTCACT; site = the 11-nt donor
In this section we review reported recombinant UMI read abundance (log10) values for a set of sequences.

Sample answers from the record:
TGCTGGGCATGGACCGGTTTTCCCGGTAATCCGTATTTGGT (site TGCTGGGCTAC)
0.306
GGAGTGGCATGGACCGGTTTTCCCGGTAATCCGTATTTGGT (site GGTGTGGCTAC)
0.564

In: For the sequence shown here, GAAGATTCATGGACCGGTTTTCCCGGTAATCCGTATTTGGT (site GAAGATTCTAG) , give the reported recombinant UMI read abundance (log10).
Out: 0

In: Which recombinant UMI read abundance (log10) value belongs to AATGTAACATGGACCGGTTTTCCCGGTAATCCGTATTTGCC (site AATGTAACTTG) ?
Out: 1.34

In: Form field: reported recombinant UMI read abundance (log10) of ACCGCTGCATGGACCGGTTTTCCCGGTAATCCGTATTTGGC (site ACCGCTGCTGC)
Out: 2.08

In: # recombinant UMI read abundance (log10) lookup, item ATCCAAGCATGGACCGGTTTTCCCGGTAATCCGTATTTGAG (site ATCGAAGCTCT)
Out: 0.00681

In: Form field: reported recombinant UMI read abundance (log10) of GTGGAGGCATGGACCGGTTTTCCCGGTAATCCGTATTTGTG (site GTGAAGGCTCA)
Out: 1.1

In: So what does the record say about recombinant UMI read abundance (log10) for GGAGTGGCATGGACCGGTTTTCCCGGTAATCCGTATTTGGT (site GGAGTGGCTGC) ?
Out: 0.537

In: So what's the measured recombinant UMI read abundance (log10) for this one? ATCTCAGCATGGACCGGTTTTCCCGGTAATCCGTATTTGGG (site ATCTCAGCTCC)
Out: 0.323

In: May I ask what recombinant UMI read abundance (log10) has been recorded for CCTAATACATGGACCGGTTTTCCCGGTAATCCGTATTTGGC (site CCTGATACTGC) ?
Out: 0.00582

In: Please look up its recombinant UMI read abundance (log10): TGACGCTCATGGACCGGTTTTCCCGGTAATCCGTATTTGCG (site TGACGCTCTCG)
Out: 1.33

In: For the sequence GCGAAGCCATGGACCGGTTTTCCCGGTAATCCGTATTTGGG (site GCGGAGCCTCC) , what recombinant UMI read abundance (log10) is on record?
Out: 0.0363

In: Which recombinant UMI read abundance (log10) is reported for this sequence? TAGGACTCATGGACCGGTTTTCCCGGTAATCCGTATTTGCG (site TAGGATTCTCG)
Out: 1.05

In: Which recombinant UMI read abundance (log10) reading was recorded for the sequence ACGGGACCATGGACCGGTTTTCCCGGTAATCCGTATTTGTC (site ACGGGACCTGA) ?
Out: 0

In: Need recombinant UMI read abundance (log10), item CGTAAGACATGGACCGGTTTTCCCGGTAATCCGTATTTGAG (site CGTCAGACTCT)
Out: 0.0684

In: Need recombinant UMI read abundance (log10) of GTTAGAGCATGGACCGGTTTTCCCGGTAATCCGTATTTGGG (site GTTAGAGCTCC) , thanks.
Out: 0.089

In: Item CTTCTCTCATGGACCGGTTTTCCCGGTAATCCGTATTTGTC (site CTTCTCTCTTA) has what recorded recombinant UMI read abundance (log10)?
Out: 0.836

In: Give its recombinant UMI read abundance (log10) value. Item: GTTGTTCCATGGACCGGTTTTCCCGGTAATCCGTATTTGGT (site GCTGTTCCTAC)
Out: 0.00506
